Measured values drawn from patent US9452997B2 for this set.

subject of test: Recombinant autotaxin (Homo sapiens, UniProt Q13822)
experimental protocol: Autotaxin assay (Amplex Red, LPC substrate)
applied conditions: recombinant autotaxin, LPC substrate, Amplex Red detection; values given as upper bounds
# IC50 per record follows

Some molecules with known IC50 results, for comparison:
- O=C(OCc1ccc(C(F)(F)F)cc1)N1CCC(NC2CCN(C(=O)c3ccc4[nH]nnc4c3)C2)CC1 (stereo not shown): < 10 µM
- O=C(CCc1ccc(C(F)(F)F)cc1)N1CCC(N2CCN(C(=O)c3ccc4[nH]c(=O)oc4c3)CC2)CC1: < 1 µM
- O=C(Nc1ccc2[nH]c(=O)oc2c1)C1CC(=O)N(C2CCN(C(=O)OCc3cc(Cl)cc(Cl)c3)CC2)C1 (stereo not shown): < 1 µM
- O=C(Cc1ccc2[nH]nnc2c1)N1CCC(N2CCN(C(=O)Nc3cc(Cl)cc(Cl)c3)CC2)CC1: < 10 µM
- O=C(OCc1ccc(C(F)(F)F)c(F)c1)N1CCN(C2CCN(C(=O)c3ccc4[nH]nnc4c3)CC2)CC1: < 1 µM
- O=C(NCCc1ccccn1)C1CC(=O)N(C2CCN(C(=O)OCc3cc(Cl)cc(Cl)c3)CC2)C1 (stereo not shown): < 10 µM
- Cc1c(Br)cc(CCC(=O)N2CCN(C3CCN(C(=O)c4ccc5[nH]nnc5c4)CC3)CC2)cc1Br: < 10 µM
- O=C(NC1CCN(C2CCN(C(=O)OCc3ccc(Cl)cc3)CC2)C1)c1ccc2[nH]nnc2c1 (stereo not shown): < 10 µM
- O=C(OCc1cc(F)c(F)c(C(F)(F)F)c1)N1CCN(C2CCN(C(=O)c3ccc4[nH]nnc4c3)CC2)CC1: < 1 µM
- O=C(CCc1ccc(C(F)(F)F)cc1)N1CCC(N2CCN(C(=O)c3cccc(-c4ncc[nH]4)c3)CC2)CC1: < 30 µM

// IC50 (Recombinant autotaxin (Homo sapiens, UniProt Q13822)) for O=C(OCc1cc(Cl)cc(C(F)(F)F)c1)N1CCN(C2CCN(S(=O)(=O)c3ccc4[nH]c(=O)oc4c3)CC2)CC1 = < 10 µM

// IC50 (Recombinant autotaxin (Homo sapiens, UniProt Q13822)) for O=C(OCc1ccc(OC(F)(F)F)c(Cl)c1)N1CCN(C2CCN(C(=O)c3ccc4[nH]nnc4c3)CC2)CC1 = < 1 µM

// IC50 (Recombinant autotaxin (Homo sapiens, UniProt Q13822)) for O=C(OCc1cc(F)c(F)c(F)c1)N1CCC(N2CCN(C(=O)c3ccc4[nH]nnc4c3)CC2)CC1 = < 1 µM

// IC50 (Recombinant autotaxin (Homo sapiens, UniProt Q13822)) for O=C(NC1CCC(N2CCN(C(=O)OCc3ccc(SC(F)(F)F)cc3)CC2)CC1)c1ccc2[nH]nnc2c1 (stereo not shown) = < 10 µM

// IC50 (Recombinant autotaxin (Homo sapiens, UniProt Q13822)) for O=C(OCc1ccc(Cl)cc1Cl)N1CCN(C2CCN(C(=O)c3ccc4[nH]nnc4c3)CC2)CC1 = < 1 µM

// IC50 (Recombinant autotaxin (Homo sapiens, UniProt Q13822)) for O=C(OCc1ccc(OC(F)(F)F)c(F)c1)N1CCN(C2CCN(C(=O)c3ccc4[nH]nnc4c3)CC2)CC1 = < 1 µM

// IC50 (Recombinant autotaxin (Homo sapiens, UniProt Q13822)) for C[C@H](OC(=O)N1CCN(C2CCN(C(=O)c3ccc4[nH]nnc4c3)CC2)CC1)c1cc(C(F)(F)F)cc(C(F)(F)F)c1 = < 10 µM

// IC50 (Recombinant autotaxin (Homo sapiens, UniProt Q13822)) for O=C(CCc1ccccc1O)N1CCC(N2CCN(C(=O)c3ccccc3-c3cccc(C(F)(F)F)c3)CC2)CC1 = < 1 µM

// IC50 (Recombinant autotaxin (Homo sapiens, UniProt Q13822)) for O=C(CCc1ccc(C(F)(F)F)cc1)N1CCC(N2CCN(C(=O)c3ccc4[nH]nnc4c3)CC2)CC1 = < 10 µM

// IC50 (Recombinant autotaxin (Homo sapiens, UniProt Q13822)) for O=C(Nc1ccc(-c2csnn2)cc1)C1CC(=O)N(C2CCN(C(=O)OCc3cc(Cl)cc(Cl)c3)CC2)C1 (stereo not shown) = < 10 µM

// IC50 (Recombinant autotaxin (Homo sapiens, UniProt Q13822)) for O=C(NC1CCC(N2CCN(C(=O)OCc3cc(C(F)(F)F)cc(C(F)(F)F)c3)CC2)CC1)c1ccc2[nH]nnc2c1 (stereo not shown) = < 1 µM

// IC50 (Recombinant autotaxin (Homo sapiens, UniProt Q13822)) for O=C(CCc1ccc(Cl)cc1F)N1CCN(C2CCN(C(=O)c3ccc4[nH]nnc4c3)CC2)CC1 = < 10 µM

// IC50 (Recombinant autotaxin (Homo sapiens, UniProt Q13822)) for O=C(OCc1ccc(OC(F)(F)F)cc1)N1CCN(C2CCN(C(=O)c3ccc4[nH]nnc4c3)CC2)CC1 = < 1 µM

====

subject of test: Recombinant autotaxin (Homo sapiens, UniProt Q13822)
experimental protocol: Autotaxin assay (Amplex Red, LPC substrate)
applied conditions: recombinant autotaxin, LPC substrate, Amplex Red detection; values given as upper bounds
pIC50: −log10 of the molar value.
# pIC50 per record follows

Some molecules with known pIC50 results, for comparison:
* O=C(Nc1ccc(N2CCN(C(=O)OCc3ccc(C(F)(F)F)cc3)CC2)nc1)c1ccc2[nH]nnc2c1 | > 4.52
* O=C(c1ccc2[nH]nnc2c1)N1CCC(N2CCN(C(=O)c3ccccc3-c3ccc(C(F)(F)F)cc3)CC2)CC1 | > 5.00
* O=C(OCc1ccc(Cl)cc1)N1CCN(C2CCN(C(=O)c3ccc4[nH]nnc4c3)CC2)CC1 | > 6.00

The reported pIC50 of the molecule O=C(OCc1ccc(Br)cc1)N1CCN(C2CCN(C(=O)c3ccc4[nH]nnc4c3)CC2)CC1 was > 6.00

The reported pIC50 of the molecule O=C(OCc1c(F)c(F)c(C(F)(F)F)c(F)c1F)N1CCC(N2CCN(C(=O)c3ccc4[nH]nnc4c3)CC2)CC1 was > 6.00

The reported pIC50 of the molecule O=C(OCc1ccc2c(c1)OCO2)N1CCN(C2CCN(C(=O)c3ccc4[nH]nnc4c3)CC2)CC1 was > 5.00

The reported pIC50 of the molecule CC(OC(=O)N1CCN(C2CCN(C(=O)c3ccc4[nH]nnc4c3)CC2)CC1)c1cc(C(F)(F)F)cc(C(F)(F)F)c1 (centres unmarked) was > 5.00

The reported pIC50 of the molecule O=C(Nc1ccc2[nH]nnc2c1)C1CC(=O)N(C2CCN(C(=O)OCc3cc(Cl)cc(Cl)c3)CC2)C1 (centres unmarked) was > 6.00

====

subject of test: Recombinant autotaxin (Homo sapiens, UniProt Q13822)
experimental protocol: Autotaxin assay (Amplex Red, LPC substrate)
applied conditions: recombinant autotaxin, LPC substrate, Amplex Red detection; values given as upper bounds
# IC50 per record follows

The reported IC50 of the molecule O=C(OCc1cc(C(F)(F)F)cc(C(F)(F)F)c1)N1CCN(C2CCN(S(=O)(=O)c3ccc4[nH]c(=O)sc4c3)CC2)CC1 was < 10 µM

====

# IC50 per record follows
subject of test: Recombinant autotaxin (Homo sapiens, UniProt Q13822)
Construct: made in house; host or cells: Hi5 insect cells (baculovirus)
experimental protocol: Autotaxin assay (Amplex Red, LPC substrate)
Assay type: biochemical
applied conditions: recombinant autotaxin, LPC substrate, Amplex Red detection; values given as upper bounds

Some compounds with known IC50 results, for comparison:
- O=C(Cc1ccc2[nH]nnc2c1)N1CCC(N2CCN(C(=O)Cc3cc(C(F)(F)F)cc(C(F)(F)F)c3)CC2)CC1 [Compound 141]: < 10000 nM
- O=C(NCc1ccc(SC(F)(F)F)cc1)N1CCN(C2CCN(C(=O)c3ccc4[nH]nnc4c3)CC2)CC1 [Compound 122]: < 10000 nM
- O=C(NCCc1cccnc1)C1CC(=O)N(C2CCN(C(=O)OCc3cc(Cl)cc(Cl)c3)CC2)C1 (stereo not shown) [Compound 30]: < 30000 nM
- O=C(OCc1ccc(Br)cc1)N1CCC(N2CCN(C(=O)c3ccc4[nH]nnc4c3)CC2)CC1 [Compound 80]: < 1000 nM
- O=C(OCc1ccc(OC(F)(F)F)c(Br)c1)N1CCN(C2CCN(C(=O)c3ccc4[nH]nnc4c3)CC2)CC1 [Compound 166]: < 1000 nM
- Cc1cc(C)cc(COC(=O)N2CCN(C3CCN(C(=O)c4ccc5[nH]nnc5c4)CC3)CC2)c1 [Compound 147]: < 1000 nM

The reported IC50 of the compound O=C(OCc1cc(Cl)cc(Br)c1)N1CCN(C2CCN(C(=O)c3ccc4[nH]nnc4c3)CC2)CC1 [Compound 146] was < 1000 nM

The reported IC50 of the compound CC1=NN(c2ccc(NC(=O)C3CC(=O)N(C4CCN(C(=O)OCc5cc(Cl)cc(Cl)c5)CC4)C3)cc2)C(=O)C1 (stereo not shown) [Compound 56] was < 10000 nM

The reported IC50 of the compound Cc1ccc(-c2ccccc2C(=O)N2CCC(C3CCN(C(=O)c4ccc5[nH]nnc5c4)CC3)CC2)cc1 [Compound 11] was < 1000 nM

The reported IC50 of the compound O=C(CCc1cc(Cl)cc(Cl)c1)N1CCN(C2CCN(C(=O)c3ccc4[nH]nnc4c3)CC2)CC1 [Compound 69] was < 10000 nM

The reported IC50 of the compound O=C(c1ccc2[nH]nnc2c1)N1CCC(N2CCN(C(=O)C3CC3c3ccc(Cl)cc3)CC2)CC1 (stereo not shown) [Compound 179] was < 10000 nM

The reported IC50 of the compound O=C(OCc1ccc(Cl)cc1F)N1CCN(C2CCN(C(=O)c3ccc4[nH]nnc4c3)CC2)CC1 [Compound 36] was < 1000 nM

The reported IC50 of the compound O=C(OCc1ccc(Cl)cc1F)N1CCN(C2CCN(C(=O)c3ccc4[nH]c(=O)oc4c3)CC2)CC1 [Compound 65] was < 1000 nM

The reported IC50 of the compound O=C(Cc1ccc2[nH]nnc2c1)N1CCC(N2CCN(C(=O)OCc3cc(C(F)(F)F)cc(C(F)(F)F)c3)CC2)CC1 [Compound 139] was < 1000 nM

The reported IC50 of the compound Cc1ccc(-c2cccc(C(=O)N3CCC(C4CCN(C(=O)c5ccc6[nH]nnc6c5)CC4)CC3)c2)cc1 [Compound 13] was < 10000 nM

The reported IC50 of the compound O=C(OCc1ccc(OC(F)(F)F)c(Cl)c1)N1CCC(N2CCN(C(=O)c3ccc4[nH]nnc4c3)CC2)CC1 [Compound 143] was < 1000 nM

The reported IC50 of the compound O=C(COc1ccc(OC(F)(F)F)cc1)N1CCN(C2CCN(C(=O)c3ccc4[nH]nnc4c3)CC2)CC1 [Compound 160] was < 10000 nM

The reported IC50 of the compound C[C@@H](OC(=O)N1CCN(C2CCN(C(=O)c3ccc4[nH]nnc4c3)CC2)CC1)c1cc(C(F)(F)F)cc(C(F)(F)F)c1 [Compound 169] was < 1000 nM

The reported IC50 of the compound O=C(Nc1ccc2[nH]nnc2c1)C1CC(=O)N(C2CCN(C(=O)CCc3ccc(C(F)(F)F)cc3)CC2)C1 (stereo not shown) [Compound 3] was < 1000 nM

The reported IC50 of the compound CC(C)c1ccc(COC(=O)N2CCC(N3CCN(C(=O)c4ccc5[nH]nnc5c4)CC3)CC2)cc1 [Compound 87] was < 1000 nM

The reported IC50 of the compound O=C(OCc1c(F)cc(Br)cc1F)N1CCN(C2CCN(C(=O)c3ccc4[nH]nnc4c3)CC2)CC1 [Compound 157] was < 10000 nM

The reported IC50 of the compound CN(C1CCN(C(=O)OCc2ccc(C(F)(F)F)cc2)CC1)C1CCN(C(=O)c2ccc3[nH]nnc3c2)C1 (stereo not shown) [Compound 182] was < 10000 nM

The reported IC50 of the compound O=C(OCc1cc(Cl)cc(C(F)(F)F)c1)N1CCN(C2CCN(C(=O)c3ccc4[nH]nnc4c3)CC2)CC1 [Compound 95] was < 1000 nM

The reported IC50 of the compound O=C(OC1(c2cc(C(F)(F)F)cc(C(F)(F)F)c2)CC1)N1CCN(C2CCN(C(=O)c3ccc4[nH]nnc4c3)CC2)CC1 [Compound 178] was < 1000 nM
